Percent Effect values by entry
Molecular target: Chromo domain-containing protein 1 (Saccharomyces cerevisiae (strain ATCC 204508 / S288c) (Baker's yeast)) (UniProt P32657)
Sequence (P32657 whole entry, the tested form may be a part): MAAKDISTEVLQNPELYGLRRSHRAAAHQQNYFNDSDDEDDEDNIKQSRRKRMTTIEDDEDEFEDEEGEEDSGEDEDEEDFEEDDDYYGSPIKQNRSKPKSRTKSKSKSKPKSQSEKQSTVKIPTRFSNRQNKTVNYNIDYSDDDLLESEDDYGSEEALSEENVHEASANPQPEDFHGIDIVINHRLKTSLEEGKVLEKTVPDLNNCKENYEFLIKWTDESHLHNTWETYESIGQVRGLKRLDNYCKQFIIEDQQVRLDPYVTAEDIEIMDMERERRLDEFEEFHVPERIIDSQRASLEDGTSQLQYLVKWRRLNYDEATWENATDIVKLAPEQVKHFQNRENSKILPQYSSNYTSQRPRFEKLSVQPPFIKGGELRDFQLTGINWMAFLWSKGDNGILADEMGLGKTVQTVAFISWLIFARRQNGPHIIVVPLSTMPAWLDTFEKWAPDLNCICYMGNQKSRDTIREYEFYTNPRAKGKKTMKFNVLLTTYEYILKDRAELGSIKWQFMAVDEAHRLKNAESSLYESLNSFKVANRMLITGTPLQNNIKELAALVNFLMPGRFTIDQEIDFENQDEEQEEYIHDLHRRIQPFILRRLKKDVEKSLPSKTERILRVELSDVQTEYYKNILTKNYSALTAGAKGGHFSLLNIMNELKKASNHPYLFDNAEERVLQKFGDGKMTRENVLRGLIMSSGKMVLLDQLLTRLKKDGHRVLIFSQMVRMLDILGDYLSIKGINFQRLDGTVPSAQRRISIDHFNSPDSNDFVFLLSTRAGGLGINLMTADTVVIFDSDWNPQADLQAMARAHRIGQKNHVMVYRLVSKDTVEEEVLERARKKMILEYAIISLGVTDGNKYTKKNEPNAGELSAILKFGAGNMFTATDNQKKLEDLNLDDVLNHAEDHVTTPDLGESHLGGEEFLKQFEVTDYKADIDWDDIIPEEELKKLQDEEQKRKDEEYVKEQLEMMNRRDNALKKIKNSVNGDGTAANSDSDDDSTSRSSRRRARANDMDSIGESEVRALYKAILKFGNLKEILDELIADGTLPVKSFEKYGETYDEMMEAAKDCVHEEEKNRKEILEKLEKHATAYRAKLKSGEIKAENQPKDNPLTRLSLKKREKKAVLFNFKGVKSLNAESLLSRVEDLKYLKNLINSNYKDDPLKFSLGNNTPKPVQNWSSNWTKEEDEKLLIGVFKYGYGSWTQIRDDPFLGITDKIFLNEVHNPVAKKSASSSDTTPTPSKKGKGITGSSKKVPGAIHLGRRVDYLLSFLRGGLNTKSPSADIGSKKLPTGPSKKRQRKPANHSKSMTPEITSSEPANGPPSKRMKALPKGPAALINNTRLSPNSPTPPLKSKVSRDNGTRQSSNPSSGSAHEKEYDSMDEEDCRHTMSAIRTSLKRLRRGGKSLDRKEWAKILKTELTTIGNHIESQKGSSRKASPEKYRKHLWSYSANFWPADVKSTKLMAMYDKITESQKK
Assay: ScCHD-1 Enzyme Inhibition Assay
Type: functional
Design: scale not given: in the data most compounds retested in dose-response had high values
Settings: 30 µM

{"compound": "CNC(=O)[C@H]1C[C@H]2OCC[C@H]2N(Cc2cccc3ccccc23)C1", "Percent Effect": "-9.11%"}
{"compound": "c1csc(-c2nc(CNC3CCc4ncnn4C3)co2)c1 (configuration not stated)", "Percent Effect": "-4.74%"}
{"compound": "O=C(NCCc1ccccc1)C1CCC(Cn2cnnn2)CC1 (configuration not stated)", "Percent Effect": "2.05%"}
{"compound": "CC(C)c1nccn1CCCNC(=O)c1ccc(N(C)C)nc1", "Percent Effect": "-5.17%"}
{"compound": "CC1CN(C(=O)c2ccn(-c3cccc(Cl)c3)n2)CCO1 (configuration not stated)", "Percent Effect": "-10.1%"}
{"compound": "O=C(c1cc(COc2ccc3c(c2)OCO3)[nH]n1)N1CCCC1", "Percent Effect": "-1.77%"}
{"compound": "CCc1nc(CNC(=O)Nc2ccc(C(=O)NC)cc2C)cs1", "Percent Effect": "-7.82%"}
{"compound": "COc1c(C2CCCN2Cc2cc(C)no2)c(C)nn1C (configuration not stated)", "Percent Effect": "-0.457%"}
{"compound": "Cc1nc(C)n(CC2CCCN2CC(=O)NCc2ccco2)n1 (configuration not stated)", "Percent Effect": "-3.99%"}
{"compound": "Cc1cnn(CCC(=O)N2CCCC(c3cc(C(N)=O)[nH]n3)C2)c1 (configuration not stated)", "Percent Effect": "-7.36%"}
{"compound": "CC(C)c1ccc(OCn2ccc(C(=O)N3CCCC3)n2)cc1", "Percent Effect": "-6.24%"}
{"compound": "Cc1ncnc2c1CCN(Cc1cccs1)CC2", "Percent Effect": "-6.96%"}
